B1: library; a variant is named by its letters at N, in order (parent)
chain: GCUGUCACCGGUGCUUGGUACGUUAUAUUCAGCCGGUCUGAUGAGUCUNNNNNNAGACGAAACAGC

variants of: B1; assay: normalized RNA/DNA level without ligand (relative to sTRSVctl = 100) (log10 (% of sTRSVctl)); HEK293T overexpressing SLC46A1; higher = less ribozyme self-cleavage, higher mRNA level; conditions: without (6R,S)-folinic acid; ligand present: no
The label depends only on normalized RNA/DNA level without ligand (log10): T if it is at least 2, F if it is smaller.

   variant_key  classification
0       AUGGGG               F
1       ACGACC               T
2       CCUUAG               F
3       CCGAAG               F

Q) Quick check, normalized RNA/DNA level without ligand (log10) >= 2? UAAUAG
A) F

Q) Quick check, normalized RNA/DNA level without ligand (log10) >= 2? UUAGAA
A) F
